# ASSAY: Solubility of dye to organic solvent
# Assay type: physicochemical
# RUN PARAMETERS: toluene, 50° C.; mass % of the dye to the mass of the entire solution
RECORDED ENDPOINT: Solubility to organic solvent: Toluene (%< mass %)
Quick reminder: number only, in %< mass %, skip the unit.

# COMPOUND, RECORDED ENDPOINT, READOUT NUMBER
rows = [
    ("CCCCCCCCCC(CCCCCCC)C(=O)Nc1cc2c(cc1C1=C([O-])C(=c3cc4c(cc3NC(=O)C(CCCCCCC)CCCCCCCCC)=[N+](C)C(C)C4(C)C)C1=O)C(C)(C)C(C)N2C (centres unmarked)", "Solubility to organic solvent: Toluene", 10),
    ("CCCCC(CC)C(=O)Nc1cc2c(cc1C1=C([O-])C(=c3cc4c(cc3NC(=O)C(CC)CCCC)=[N+](CCC)C(C)C4(C)C)C1=O)C(C)(C)C(C)N2CCC (centres unmarked)", "Solubility to organic solvent: Toluene", 10),
]

Now let's try a different one.
Challenge: For the compound CCCCC(CC)C(=O)Nc1cc2c(cc1C1=C([O-])C(=c3cc4c(cc3NC(=O)C(CC)CCCC)=[N+](C(C)C)C(C)C4(C)C)C1=O)C(C)(C)C(C)N2C(C)C (centres unmarked) , give its reported Solubility to organic solvent: Toluene.
Response given: 10
